System: BLK;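 also: KINOMEscan kinase panel screen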
Conditions: concentration: 1 μM, replicates: in singlicate; n = 1
metric: %Inh

Cn1cncc1-c1cc2c(Nc3ccc(OCc4ccccc4)cc3)ncnc2cn1
27%
CSc1ccc(-c2nc3n(c2-c2ccncc2)CCC3)cc1
4%
COc1ccc(Nc2nccc(N3CCC(NC(=O)C(C)c4ccc(Cl)cc4)CC3)n2)cc1 (stereo not shown)
5%
CC(=O)c1c(C)c2cnc(Nc3ccc(N4CCNCC4)cn3)nc2n(C2CCCC2)c1=O
0%
Cc1cnc(N)c(/C=C/c2cncc(C(=O)NCCc3ccc(Cl)cc3Cl)c2)c1.Cl
3%

Q. // lookup %Inh for COc1ccc(Nc2nccc(N3CCC(NC(=O)c4cc5ccccc5s4)C3)n2)cc1 (stereo not shown)
A. 0%

Q. // query %Inh value for entry "CNC(=O)c1ccc(C)c(-n2c(C)cc(OCc3ccc(F)cc3F)c(Br)c2=O)c1"
A. 0%

Q. What %Inh value was documented for this compound, "Cc1ccc(NC(=O)Nc2ccc(Cl)cc2)cc1-c1ccc(C(=O)Nc2ccncc2)cc1" ?
A. 21%
